Please go through the items and note down their solubility kinetic.
details: buffer; pH 7.4; 200.0 µM
One number for each entry, in µg/mL.

Past entries and their recorded results:
{"MOLECULE": "Cc1ccccc1Nc1c([N+](=O)[O-])cncc1[N+](=O)[O-]", "UNITS SYMBOL": "µg/mL", "solubility kinetic": 37.1}
{"MOLECULE": "COc1cccc(NCCC(=O)c2cccc([N+](=O)[O-])c2)c1", "UNITS SYMBOL": "µg/mL", "solubility kinetic": 12.4}
{"MOLECULE": "O=C(O)CCCCCNCc1c(Cl)cccc1Cl", "UNITS SYMBOL": "µg/mL", "solubility kinetic": 41.6}
{"MOLECULE": "Cc1cc(N2CCNCC2)nc2ccccc12", "UNITS SYMBOL": "µg/mL", "solubility kinetic": 33.3}

Quick batch: solubility kinetic for everything below.
1. O=C(c1cccc(S(=O)(=O)Nc2ccc(Br)cc2)c1)N1CCC1
2. O=C(c1cncc(Br)c1)N1CCN(S(=O)(=O)c2ccc3ccccc3c2)CC1

(A)
1. 58.9
2. 6.5

Your task in this section: give solubility kinetic for each listed record.
1. COc1ccccc1CNC(=O)COC(=O)/C=C/c1ccc2c(c1)OCO2
2. O=C(COC(=O)C1(c2ccc(Cl)cc2)CCCC1)NCc1ccco1
3. COc1ccccc1/C=C1\C(=O)Nc2ccccc21
4. Cc1ccc(S(=O)(=O)N2CCCCC2C)cc1[N+](=O)[O-] (stereo not given)

(A)
[5.4, 20.7, 2, 24.2]

----------
conditions: buffer; pH 7.4; 200.0 µM
MEASURED METRIC: log10 of solubility kinetic (log10 of the value in µg/mL)
Response schema: value (number) is log10 of solubility kinetic in units of µg/mL.

Illustrative cases are given below, each with its answer.
{"COMPOUND": "Cn1c(N)c(C(=O)COC(=O)Cc2cccc(C(F)(F)F)c2)c(=O)n(C)c1=O", "log10 of solubility kinetic": 1.73}
{"COMPOUND": "O=C(Nc1ccccn1)Nc1ccccc1Cl", "log10 of solubility kinetic": -0.52}
{"COMPOUND": "Cc1cc(C)c2nc(/N=C(\\N)NC(=O)c3ccccc3)nc(C)c2c1", "log10 of solubility kinetic": 0.11}
{"COMPOUND": "N#C/C(=C\\C=C\\c1ccccc1)C(=O)NCc1ccco1", "log10 of solubility kinetic": 0.80}

(Q) Please look at this compound and report its log10 of solubility kinetic: CCC(C)NC(=O)C(=O)NCC1CCCN1CC (stereo unspecified)
(A) 1.46

----------
details: buffer; pH 7.4; 200.0 µM
MEASURED METRIC: solubility kinetic

Observe how each entry below is paired with its result.
{"COMPOUND": "C=CCOc1ccc(C2NC(=O)c3ccccc3O2)cc1 (configuration not stated)", "solubility kinetic": "1.3 µg/mL"}
{"COMPOUND": "COc1ccc(NC(=O)c2cc(-c3cccc(OC)c3)on2)cc1", "solubility kinetic": "< 0.3 µg/mL"}
{"COMPOUND": "CCCc1cc(=S)n2c([nH]c3ccccc32)c1C#N", "solubility kinetic": "16.4 µg/mL"}
{"COMPOUND": "CCN(Cc1ccncc1)C(=O)c1ccc2c(c1)S(=O)(=O)c1ccccc1C2=O", "solubility kinetic": "42 µg/mL"}
{"COMPOUND": "CC(=O)NCCC(=O)Nc1nc2c(ccc3ccccc32)s1", "solubility kinetic": "1.7 µg/mL"}
{"COMPOUND": "CCOP(=O)(OCC)/C(=N/OC(=O)c1ccc(OC)cc1)C(N)=O", "solubility kinetic": "> 53.7 µg/mL"}

Record solubility kinetic per entry; entries follow.
1. Cc1cc(-c2onc(C)c2C(=O)Nc2ccc(C(F)(F)F)cc2)no1
2. CN(CC(=O)O)S(=O)(=O)c1ccc2oc3ccccc3c2c1
3. C/C(=N\NC(=O)C1CC1)c1ccc(C)c(C)c1
4. O=C(COc1cccc(Cl)c1Cl)NC1CC1
5. CCCOc1cccc(C(=O)Nc2ccc(CN3CCOCC3)cc2)c1
6. CC(C)c1ccc(NC(=O)CCc2ccccc2)cc1

(A)
["< 0.3 µg/mL", "40.1 µg/mL", "> 34.5 µg/mL", "> 39 µg/mL", "47.2 µg/mL", "3.9 µg/mL"]

----------
conditions: buffer; pH 7.4; 200.0 µM
Decision: solubility kinetic >= 10 µg/mL yields Condition met, all other cases yield Condition not met.

These recorded examples may help you get a feel for the data.
{"COMPOUND": "Cc1nc(C)c(C(=O)NCCC(c2ccccc2)c2ccccc2)o1", "CLASS": "Condition met"}
{"COMPOUND": "CCOCCCNc1ncnc2c1nc1n2CCCC1", "CLASS": "Condition met"}
{"COMPOUND": "N#Cc1nc(COc2ccc(F)cc2)oc1N1CCCCC1", "CLASS": "Condition met"}
{"COMPOUND": "Cc1[nH]c2ccccc2c1C(=O)COC(=O)C1CCC1", "CLASS": "Condition met"}
{"COMPOUND": "O=C(O)C1CCCCC1C(=O)NCc1ccc(Cl)c(Cl)c1 (configuration not stated)", "CLASS": "Condition met"}

(Q) Tell me whether solubility kinetic is at least 10 µg/mL here: Cn1cccc1C(=O)/C(C#N)=C/c1ccc(F)cc1
(A) Condition met

(Q) solubility kinetic >= 10 µg/mL for CCCCN(C)C(=O)c1ccc2c(c1)S(=O)(=O)c1ccccc1C2=O ?
(A) Condition met

(Q) Identify whether the reported solubility kinetic of the following compound is 10 µg/mL or greater: Cc1ccc(O)c(CNc2cccc3cccnc23)c1
(A) Condition not met

(Q) Check the entry O=[N+]([O-])c1ccc2nonc2c1Nc1ccccc1 : does solubility kinetic equal or exceed 10 µg/mL?
(A) Condition not met

(Q) Answer whether solubility kinetic of COC(=O)C(C)Oc1ccc(-c2nccc(-c3ccccn3)n2)cc1 (configuration not stated) is greater than or equal to 10 µg/mL.
(A) Condition not met

(Q) Tell me whether solubility kinetic is at least 10 µg/mL here: O=S(=O)(c1cccs1)N1CCC(CO)(Cc2cccc(F)c2)CC1
(A) Condition met

(Q) Textbook exercise: given the entry CCN(CC)c1ccc(NC(=O)CN(C)Cc2cccs2)cc1 , state whether its solubility kinetic is greater than or equal to 10 µg/mL.
(A) Condition met

----------
conditions: buffer; pH 7.4; 200.0 µM
Hi there, I'd appreciate the recorded solubility kinetic for every entry that follows.
Numbers only, in µg/mL.

{"COMPOUND": "CC(CCN1CCN(c2ccc(F)cc2)CC1)c1ccccc1 (configuration not stated)", "solubility kinetic [µg/mL]": 19.6}
{"COMPOUND": "S=C(NC1CCCCC1)N1CCOCC1", "solubility kinetic [µg/mL]": 33.8}
{"COMPOUND": "Cc1ccccc1OCC(=O)OCC(=O)NCc1ccc2c(c1)OCO2", "solubility kinetic [µg/mL]": 17.3}
{"COMPOUND": "O=C(COc1ccc(Cl)cc1)Nc1ncc([N+](=O)[O-])s1", "solubility kinetic [µg/mL]": 3.2}
{"COMPOUND": "C=CCNC(=O)c1ccc(CSc2nc3ccccc3s2)cc1", "solubility kinetic [µg/mL]": 8.2}

For the 4 compounds below, give their solubility kinetic values.
1. O=C(Nc1nccs1)c1ccc2ccccc2n1
2. Cc1ccc(CNC(=O)CCSCc2ccccc2C)cc1
3. COc1ccc(S(=O)(=O)N2CCN(C(=O)C3CCCCC3)CC2)cc1
4. CCN(C(=S)Nc1ccc(OC(F)F)cc1)C1CCCCC1

(A)
1. 5.6
2. 6.5
3. 53.7
4. 5.4

----------
conditions: buffer; pH 7.4; 200.0 µM
MEASURED METRIC: solubility kinetic (µg/mL)
Numbers only, in µg/mL.

Some solved cases for reference:
{"COMPOUND": "O=C(CNC(=O)c1ccc(Cl)cc1)Nc1ccccc1C(F)(F)F", "MEASURED RESULT": 3.4}
{"COMPOUND": "Cc1ccc(OCCC(=O)Nc2ccc(C)c(F)c2)cc1", "MEASURED RESULT": 1.4}
{"COMPOUND": "CC(=O)c1ccccc1OCC(O)Cn1ccnc1 (centres undefined)", "MEASURED RESULT": 38.2}
{"COMPOUND": "COc1ccccc1NC(=O)NC1(C(=O)N2CCCCC2)CCCCC1", "MEASURED RESULT": 10}
{"COMPOUND": "Cc1ccc(C(=O)NC2CCCCNC2=O)cc1 (centres undefined)", "MEASURED RESULT": 33.3}
{"COMPOUND": "CCOC(=O)c1c(C)[nH]c(C(=O)COC(=O)c2ccc([N+](=O)[O-])o2)c1C", "MEASURED RESULT": 4.4}
{"COMPOUND": "CCOCCCNC(=O)c1cc2c(=O)n(CC)c3ccccc3c2s1", "MEASURED RESULT": 4.8}
{"COMPOUND": "Cc1cc(NC(=O)c2ccc(F)cc2)no1", "MEASURED RESULT": 20.7}

Batch request: solubility kinetic for each of the following compounds.
1. NC(N)=NCCCC(NC(=O)c1ccccc1)C(=O)Nc1ccc2ccccc2c1 (centres undefined)
2. Cc1cccc(C)c1NC(=O)NC1(C(=O)N2CCCCC2)CCCCC1
3. Cc1c(Cl)cccc1NC(=S)NCc1ccc(F)cc1
4. CCOc1ccc(NC(=O)Nc2ccon2)cc1

(A)
1. 52.2
2. 45.6
3. 3.7
4. 36.9
